Field: IC50 Ratio (vs PYY(3-36)). Provide a value for each of the binders that follow.
Biological target: human Y2 receptor (human) (UniProt P49146)
Sequence (P49146 whole entry): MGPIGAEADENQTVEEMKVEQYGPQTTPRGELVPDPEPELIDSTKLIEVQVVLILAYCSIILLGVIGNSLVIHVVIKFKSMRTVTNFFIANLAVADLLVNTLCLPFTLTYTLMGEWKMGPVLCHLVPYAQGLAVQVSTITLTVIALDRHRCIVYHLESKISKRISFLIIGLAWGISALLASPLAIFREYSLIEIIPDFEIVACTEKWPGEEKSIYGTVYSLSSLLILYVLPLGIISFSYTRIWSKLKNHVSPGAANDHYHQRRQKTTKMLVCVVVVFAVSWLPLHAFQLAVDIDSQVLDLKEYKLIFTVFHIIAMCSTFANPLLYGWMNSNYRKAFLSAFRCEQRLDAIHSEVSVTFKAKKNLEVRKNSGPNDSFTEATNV
Assay: RBA: [125I]-PYY displacement, hY2R/CHO membranes
Non-standard residues stand in square brackets, D forms with d. *: point of attachment. tBuAla = CC(C)(C)C[C@H](N)C(=O)O; Cha = N[C@@H](CC1CCCCC1)C(=O)O; Isobutyryl = CC(C)C(=O)*; Abu = CC[C@H](N)C(=O)O; Aib = CC(C)(N)C(=O)O

# return recorded IC50 Ratio (vs PYY(3-36)) for input Isobutyryl-R[Abu][Abu][Cha]NL[Aib]TRQR[Cha]-NH2 (SMILES CC[C@H](NC(=O)[C@H](CCCNC(=N)N)NC(=O)C(C)C)C(=O)N[C@@H](CC)C(=O)N[C@@H](CC1CCCCC1)C(=O)N[C@@H](CC(N)=O)C(=O)N[C@@H](CC(C)C)C(=O)NC(C)(C)C(=O)N[C@H](C(=O)N[C@@H](CCCNC(=N)N)C(=O)N[C@@H](CCC(N)=O)C(=O)N[C@@H](CCCNC(=N)N)C(=O)N[C@@H](CC1CCCCC1)C(N)=O)[C@@H](C)O) [Isobutanoyl-[Abu26,27, Cha28,36, Aib31]-PYY(25-36)]
31

# return recorded IC50 Ratio (vs PYY(3-36)) for input Isobutyryl-R[Abu][Cha][Cha]N[tBuAla][Aib]TRQR[Cha]-NH2 (SMILES CC[C@H](NC(=O)[C@H](CCCNC(=N)N)NC(=O)C(C)C)C(=O)N[C@@H](CC1CCCCC1)C(=O)N[C@@H](CC1CCCCC1)C(=O)N[C@@H](CC(N)=O)C(=O)N[C@@H](CC(C)(C)C)C(=O)NC(C)(C)C(=O)N[C@H](C(=O)N[C@@H](CCCNC(=N)N)C(=O)N[C@@H](CCC(N)=O)C(=O)N[C@@H](CCCNC(=N)N)C(=O)N[C@@H](CC1CCCCC1)C(N)=O)[C@@H](C)O) [Isobutanoyl-[Abu26, Cha27,28,36, Leu(Me)30, Aib31]-PYY(25-36)]
51
